B1: CCDC6 (parent)
chain: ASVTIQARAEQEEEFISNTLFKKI

variants of: B1; test: protein stability index of a GFP-peptide fusion (GPS, HEK-293T) (PSI 1-6); higher = more stable; details: c terminus: a fixed tail appended;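 further: lentivirally expressed fusions sorted by FACS into six bins by GFP to DsRed ratio, PSI derived from sequencing read proportions per bin multiplied by bin number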
Documented protein stability index across a set of variants
quantity name: protein stability index

• ASVTIQARAEQEEQFISNTLFKKI [E14Q] = 2.99
• ASITIQARAEQEEEFISNTLFKKI [V3I] = 3.09
• ASVTIQARAEQEEEFISNMLFKKI [T19M] = 3.03
• ASVTIQARAEQEEEFISNTLFKKF [I24F] = 3.66
• ASVTIQARAEQEEEFMSNTLFKKI [I16M] = 3.82
• ASVTIQARAEWEEEFISNTLFKKI [Q11W] = 2.07
• ASVTIQARAEQEEEFVSNTLFKKI [I16V] = 4.05
• ASVTIEARAEQEEEFISNTLFKKI [Q6E] = 4.26
• ASVTIQARAEQEEEFISNTLFNKI [K22N] = 3.98
• ASVTIQARAEQEEEFIYNTLFKKI [S17Y] = 2.9
• ASVTIQARAEQEEEAISNTLFKKI [F15A] = 4.49
• ASVTIQARAEQCEEFISNTLFKKI [E12C] = 2.35
• ASVTIQARAEQEEEFITNTLFKKI [S17T] = 4.27
• ASVTIQARAEQEEEFISNTWFKKI [L20W] = 2.91
• ASVTIQARAEQEEEFISNTLFKMI [K23M] = 2.35
• ASRTIQARAEQEEEFISNTLFKKI [V3R] = 3.9
• MSVTIQARAEQEEEFISNTLFKKI [A1M] = 3.1
• ASVTIQARAEQEEEWISNTLFKKI [F15W] = 2.98
• ASVTIQAKAEQEEEFISNTLFKKI [R8K] = 3.79
• ASVTIQAPAEQEEEFISNTLFKKI [R8P] = 4
• WSVTIQARAEQEEEFISNTLFKKI [A1W] = 1.86
• ASVTIGARAEQEEEFISNTLFKKI [Q6G] = 3.73
